# TARGET_ENTITY: Histone-lysine N-methyltransferase EHMT2 (Homo sapiens) (UniProt Q96KQ7)
# Sequence (Q96KQ7 913-1193 limits assumed): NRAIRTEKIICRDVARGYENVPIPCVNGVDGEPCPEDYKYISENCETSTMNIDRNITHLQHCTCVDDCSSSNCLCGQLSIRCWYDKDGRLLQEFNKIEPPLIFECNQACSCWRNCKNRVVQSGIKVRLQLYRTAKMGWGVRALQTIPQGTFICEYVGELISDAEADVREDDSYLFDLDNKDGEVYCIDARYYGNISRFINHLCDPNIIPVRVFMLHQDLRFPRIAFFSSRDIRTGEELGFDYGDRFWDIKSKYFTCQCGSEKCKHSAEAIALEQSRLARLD
# EXPERIMENTAL_PROTOCOL: qHTS Assay for Inhibitors of Histone Lysine Methyltransferase G9a; also: nearly all actives have a fitted effect of over 75% in size
# PARTICULARS: G9a H3K9 monomethylation, AlphaScreen, 2 h; series mostly up to 59 µM
Screen size: about 350,000 compounds; about 31,000 (8.9%) were called active. Roughly 15% stayed inconclusive and do not appear here. Calls follow the shape of the dose curve; as a rule, active = well fitted inhibition curve with a large enough effect; inconclusive = small, poorly fitted or top-dose-only effect; inactive = no such curve, though single readings can be large or run the other way. The list comes from a sample in which actives are over-represented; it also holds close analogues and randomly drawn compounds.
Select the correct class. Options are 1 (yes) for active, 0 (no) for inactive and nothing else.

Some solved cases for reference:
COc1cccc(-n2ccn(CC(=O)NCc3ccc(C)cc3)c(=O)c2=O)c1 | 0 (no)
CCCCCC(=O)Nc1ccc(S(=O)(=O)Nc2ccc(Cl)nn2)cc1 | 0 (no)
Cc1cc(Cl)ccc1OCC(=O)N(Cc1ccc(N(C)C)cc1)C1CCS(=O)(=O)C1 (stereo not given) | 1 (yes)
Cc1nnc(SCC(=O)Nn2cnnc2)s1 | 0 (no)

Then there is this compound:
What call does the record list for CC(C)c1ccc(OCC(=O)N(Cc2ccc(N(C)C)cc2)C2CCS(=O)(=O)C2)cc1 (stereo not given) ?
1 (yes)

###

# TARGET_ENTITY: Histone-lysine N-methyltransferase EHMT2 (Homo sapiens) (UniProt Q96KQ7)
# EXPERIMENTAL_PROTOCOL: qHTS Assay for Inhibitors of Histone Lysine Methyltransferase G9a; also: nearly all actives have a fitted effect of over 75% in size; as to activity, negative = inhibition: % is scaled to controls: 0 for no effect and ±100 for the full control effect
# PARTICULARS: G9a H3K9 monomethylation, AlphaScreen, 2 h; series mostly up to 59 µM
Among all 350,000 compounds or so, about 31,000 (8.9%) were called active. Not shown: some 15% with an inconclusive outcome. Only a selection was taken, and actives are over-represented in it overall.
# maps each entry to its activity, negative = inhibition

Here is how some compounds turned out for activity, negative = inhibition.
COc1cc(NC(=O)Nc2ccc(C)cc2)cc([N+](=O)[O-])c1 | 9.42% [at 2.33 µM] (inactive)
COc1ccc(N2C(=O)c3cccc4cccc(c34)C2=O)nn1 | -3.86% [at 12.7 µM] (inactive)
COc1ccc(C(=O)NCc2ccc(Cl)cc2)cc1S(=O)(=O)N1CCCC1 | -2.17% [at 12.7 µM] (inactive)

Shift focus to the following entry.
Specify measured activity, negative = inhibition for COc1ccc(NC(=O)CSc2nc3ccccc3c(=O)n2C)cc1 .
7.85% [at 0.501 µM] (inactive)

###

# TARGET_ENTITY: Histone-lysine N-methyltransferase EHMT2 (Homo sapiens)
# EXPERIMENTAL_PROTOCOL: qHTS Assay for Inhibitors of Histone Lysine Methyltransferase G9a; also: nearly all actives have a fitted effect of over 75% in size
# PARTICULARS: G9a H3K9 monomethylation, AlphaScreen, 2 h; series mostly up to 59 µM
About 31,000 (8.9%) of roughly 350,000 compounds were called active. About 15% were inconclusive and are not listed. Calls follow the shape of the dose curve; as a rule, active = well fitted inhibition curve with a large enough effect; inconclusive = small, poorly fitted or top-dose-only effect; inactive = no such curve, though single readings can be large or run the other way. The sample as a whole holds a higher share of actives than the screen did.
Select the correct class. Options are true = active, false = inactive and nothing else.

Some solved cases for reference:
Cc1cccc(OCC(=O)NCCCNC(=O)c2ccccn2)c1 | false
Cc1ccc(-n2c(=O)c3cccnc3n2CC(=O)Nc2ccccc2C(F)(F)F)cc1C | false
COC(=O)[C@@H](NC(=O)Nc1cc(Cl)ccc1C)C(C)C | false
Cc1ccc(CC2CC(=O)N(c3ccc4c(c3)OCCO4)C2=O)cc1 (stereo unspecified) | false
COc1ccc(CCNS(=O)(=O)c2cccc([N+](=O)[O-])c2)cc1 | false
CC(=O)c1cccc(NC(=O)CSc2nc3c(c(=O)[nH]2)CCC3)c1 | false
COc1cccc(-n2nc(C(=O)N3CCN(Cc4ccccc4)CC3)c3ccccc3c2=O)c1 | false
COC(=O)/C=C\C(=O)Nc1cccc([N+](=O)[O-])c1 | true
Cc1ccc(Cl)cc1NC(=O)C(C)n1nnc2sc(-c3ccccc3)cc2c1=O (stereo unspecified) | true
CC(NC(=O)c1cc2c(=O)n3ccccc3nc2n(C(C)C)c1=N)c1ccccc1 (stereo unspecified) | false

Then there is this compound:
What call does the record list for Cc1ccc(N2C(=O)CC(NCc3ccc4c(c3)OCO4)C2=O)cc1Cl (stereo unspecified) ?
true
